protein stability index listing for selected variants.
B1: CASP6 (parent)
chain: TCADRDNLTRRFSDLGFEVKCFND

- Variants of: B1
- protocol.notes: protein stability index of a GFP-peptide fusion (GPS, HEK-293T) (PSI 1-6); higher = more stable;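 note: lentivirally expressed fusions sorted by FACS into six bins by GFP to DsRed ratio, PSI derived from sequencing read proportions per bin multiplied by bin number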
- test.context: c terminus: a fixed tail appended
Response field accepts a number only; no unit should be typed.

Please review the following examples before continuing.
* C21S | 4.01
* D6I | 2.96
* E18N | 3.44

// switching to the query variant
Request: Give its protein stability index value. Item: C21F
Result: 2.16
